- Tested on: COLO 205 colorectal tumor cells
- ASSAY_INFO: Tumor cell viability inhibition assay (CellTiter-Glo 2.0, 72 hours)
- Type: cell-based
- RUN_CONDITIONS: Homo sapiens, COLO 205, 72 h, COLO 205 cell viability
MEASUREMENT_KIND: IC50

Worked set:
COMPOUND	IC50
Cc1cc(-c2cc(Cl)ccc2OCCn2c(C)nc3c(c2=O)C[C@H](N2CCC(c4cnc(C(F)(F)F)nc4)CC2)CC3)c2scc(C(=O)O)c2n1 (single isomer, unassigned)	5 to 20 µM
Cc1cc(-c2cc(Cl)ccc2OCCn2c(C)nc3c(c2=O)C[C@@H](N2CCC(O)CC2)CC3)c2scc(C(=O)O)c2n1 (single isomer, unassigned)	< 5 µM
Cc1cc(-c2cc(Cl)ccc2OCCn2c(C)nc3c(c2=O)C[C@@H](N2CCC4(CC2)COCCO4)CC3)c2scc(C(=O)O)c2n1 (single isomer, unassigned)	5 to 20 µM
Cc1cc(-c2cc(Cl)ccc2OCCn2c(C)nc3c(c2=O)C[C@@H](N2CCC(Oc4ccc(F)cc4F)CC2)CC32CC2)c2scc(C(=O)O)c2n1 (single isomer, unassigned)	< 5 µM
Cc1nc2c(c(=O)n1CC#Cc1ccc(Cl)cc1-c1ccnc3c(C(=O)NS(C)(=O)=O)csc13)CC(N1CC(F)C1)CC2 (stereo not drawn)	< 5 µM

Would you kindly look at the next entry?
Problem: Param readout = IC50; param system = COLO 205 colorectal tumor cells; param query = Cc1nc2c(c(=O)n1CCOc1ccc(Cl)cc1-c1ccnc(C(=O)O)c1)CC(N(C)CC1CC(F)(F)C1)CC2 (stereo not drawn) ; response: value
Solution: > 20 µM

====

Could you please report measured IC50 for the items listed next?
- Tested on: COLO 205 colorectal tumor cells
- ASSAY_INFO: Tumor cell viability inhibition assay (CellTiter-Glo 2.0, 72 hours)
- Format: cell-based
- RUN_CONDITIONS: Homo sapiens, COLO 205, 72 h, COLO 205 cell viability

MOLECULE	READING
Cc1cc(-c2cc(Cl)ccc2OCCn2c(C)nc3c(c2=O)CC(N2CC4COCC4C2)CC3)c2sccc2n1 (centres unmarked)	> 20 µM

Below are some molecules; for each one, tell me its IC50.
1. Cc1cc(-c2cc(Cl)ccc2OCCn2c(C)nc3c(c2=O)C[C@H](N2CCCC[C@H]2c2cccc(F)c2)CC3)c2scc(C(=O)O)c2n1 (single isomer, unassigned)
2. Cc1cc(-c2cc(Cl)ccc2OCCn2c(C)nc3c(c2=O)CC(N2C[C@@H]4CC(F)(F)C[C@@H]4C2)CC3)c2scc(C(=O)O)c2n1 (some centres unmarked)
3. Cc1cc(-c2cc(Cl)ccc2OCCn2c(C)nc3c(c2=O)CC(N2CCC4(CN(CC(F)(F)F)CC(F)(F)C4)C2)CC3)c2scc(C(=O)O)c2n1 (single isomer, unassigned)

Solution:
["< 5 µM", "< 5 µM", "< 5 µM"]

Problem: Which IC50 value is on record for Cc1nc2c(c(=O)n1CC#Cc1ccc(Cl)cc1-c1ccnc3c(C(=O)NS(C)(=O)=O)csc13)CC(N(C)C)CC2 (single isomer, unassigned) ?
Solution: > 20 µM

====

- Tested on: COLO 205 colorectal tumor cells
- ASSAY_INFO: Tumor cell viability inhibition assay (CellTiter-Glo 2.0, 72 hours)
- Assay type: cell-based
- RUN_CONDITIONS: COLO 205 cell viability
Could you please report measured IC50 for the items listed next?

COMPOUND	IC50
Cc1nc2c(c(=O)n1CC#Cc1ccc(Cl)cc1-c1ccnc3c(C(=O)O)csc13)CC(N1CCCCC1)CC2 (single isomer, unassigned)	5 to 20 µM
Cc1cc(-c2cc(Cl)ccc2C#CCn2c(C)nc3c(c2=O)CC(C)(N2CCCC4(C2)CC4(F)F)CC3)c2scc(C(=O)O)c2n1 (single isomer, unassigned) [Compound 615]	> 20 µM
COc1cc(CN(C)C2CCc3nc(C)n(CCOc4ccc(Cl)cc4-c4cc(C)nc5c(C(=O)O)csc45)c(=O)c3C2)ccn1 (single isomer, unassigned)	5 to 20 µM
Cc1cc(-c2cc(Cl)ccc2OCCn2c(C)nc3c(c2=O)CC(N(CC2CC(F)(F)C2)C2CC2)CC3)c2scc(C(=O)O)c2n1 (single isomer, unassigned)	< 5 µM

Below are some compounds; for each one, tell me its IC50.
1. Cc1cc(-c2cc(Cl)ccc2OCCn2c(C)nc3c(c2=O)CC(N(C)CC2CC(F)(F)C2)CC3)c2scc(C(=O)O)c2n1 (single isomer, unassigned)
2. Cc1nc2c(c(=O)n1CC#Cc1ccc(Cl)cc1-c1ccnc3c(C(=O)O)csc13)CC(N1CCC(OC(F)(F)F)CC1)CC2 (single isomer, unassigned)
3. Cc1sc2c(-c3cc(Cl)ccc3OCCn3c(C)nc4c(c3=O)CC(N(C)CC3CC(F)(F)C3)CC4)cn(C)c(=O)c2c1C(=O)O (single isomer, unassigned) [Compound 253]

Solution:
1. < 5 µM
2. < 5 µM
3. > 20 µM

Below are some compounds; for each one, tell me its IC50.
1. Cc1cc(-c2cc(Cl)ccc2OCCn2c(C)nc3c(c2=O)CC(C)(N2CCC4(CC2)CC4(F)F)CC3)c2scc(C(=O)O)c2n1 (single isomer, unassigned)
2. Cc1cc(-c2cc(Cl)ccc2OCCn2c(C)nc3c(c2=O)CC(N(C)C2(C4CCC4)CC2)CC3)c2scc(C(=O)NS(C)(=O)=O)c2n1 (single isomer, unassigned)
3. Cc1nc2c(c(=O)n1CCOc1ccc(Cl)cc1-c1cccc(C(=O)O)c1)CC(N(C)C)CC2 (single isomer, unassigned) [Compound 25]
4. Cc1nc2c(c(=O)n1CC#Cc1ccc(Cl)cc1-c1ccnc3c(C(=O)NS(C)(=O)=O)csc13)CC(N(C)Cc1ccncc1)CC2 (single isomer, unassigned)

Solution:
["< 5 µM", "< 5 µM", "> 20 µM", "5 to 20 µM"]

Attribution: patent US20240246918A1
